Where do the numbers come from? From ChEMBL document CHEMBL4396884.

Test: Volume of distribution at steady state in Sprague-Dawley rat at 10 mg/kg, iv by LC-MS/MS analysis
Format: ADME, organism-based
Conditions: in vivo, read-out: Vdss
measureName: Vd (L/kg)
Just the number please, in L/kg, no unit attached.

Quick one: Vd of "COc1cc2c(cc1OC)[C@H](CCc1c[nH]c3cc(C)ccc13)N(C=O)CC2" ?
1.56

====

Assay: Cmax in Sprague-Dawley rat at 25 mg/kg, po by LC-MS/MS analysis
Assay type: ADME, organism-based
Parameters: dose 25 mg/kg, route oral
Conditions: in vivo
measureName: Cmax (ng/mL)
API: value field is a number in ng/mL; no unit string.

Requested read-out: Cmax. Entry: "COc1cc2c(cc1OC)[C@H](CCc1c[nH]c3cc(C)ccc13)N(C=O)CC2"
2450
